Test: Half life in CD-1 mouse at 3 mg/kg, po by LC/MS analysis
Type: ADME, organism-based
Settings: in vivo
endpointName: half-life (min)
Output spec: scalar in min, unitless text.

itemSmiles: Nc1nc(OCc2ccccc2)c2[nH]nnc2n1
assayValue: 144

Record Nc1cc(Cc2ccccc2)c2nn[nH]c2n1 . Reported half-life: 120

----------
Test: Plasma concentration in human MPO transgenic thioglycollate-induced peritonitis mouse model at 10 mg/kg, po measured after 6 hrs by LC/MS analysis
Type: ADME, organism-based
endpointName: concentration at 6 h (µM)
Output spec: scalar in µM, unitless text.

Record Nc1cc(Cc2ccccc2)c2nn[nH]c2n1 . Reported concentration at 6 h: 7

----------
Measured Stabilty values are reported for all entries that follow.
Assay: Metabolic stability in mouse liver microsomes assessed as compound remaining
Assay type: ADME, Microsome
Kindly format the answer as number then unit.

itemSmiles: Nc1cc([C@H](Cc2ccccc2)c2ccccc2)c2nn[nH]c2n1
Stabilty: 53%
//
itemSmiles: Nc1cc([C@H](CCN[C@H]2CC[C@H](c3ccccc3)CC2)c2ccccc2)c2nn[nH]c2n1
Stabilty: 79%

Record Nc1cc([C@H](CCNCc2ccccc2C(F)(F)F)c2ccccc2)c2nn[nH]c2n1 . Reported Stabilty: 3%

----------
Molecular target: Cytochrome P450 2D6 (Homo sapiens)
Sequence (P10635 whole entry): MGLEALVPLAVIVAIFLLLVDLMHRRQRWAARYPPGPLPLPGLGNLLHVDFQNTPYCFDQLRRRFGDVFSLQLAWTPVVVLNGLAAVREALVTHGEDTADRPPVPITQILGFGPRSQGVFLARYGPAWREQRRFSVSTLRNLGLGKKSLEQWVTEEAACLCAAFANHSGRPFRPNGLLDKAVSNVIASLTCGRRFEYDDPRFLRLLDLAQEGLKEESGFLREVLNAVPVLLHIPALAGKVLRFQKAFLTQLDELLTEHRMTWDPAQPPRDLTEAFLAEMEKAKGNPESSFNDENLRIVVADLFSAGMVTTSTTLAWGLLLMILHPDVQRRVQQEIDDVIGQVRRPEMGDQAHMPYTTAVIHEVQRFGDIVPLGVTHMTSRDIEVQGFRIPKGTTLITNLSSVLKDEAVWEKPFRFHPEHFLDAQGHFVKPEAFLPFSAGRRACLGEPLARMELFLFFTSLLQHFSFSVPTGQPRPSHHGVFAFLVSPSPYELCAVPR
endpointName: IC50

Record Nc1cc(Cc2ccccc2)c2nn[nH]c2n1 . Reported IC50: > 10 µM

----------
Assay: Cmax in CD-1 mouse at 3 mg/kg, po by LC/MS analysis
Format: ADME, organism-based
Design: route oral, dose 3 mg/kg
Settings: in vivo
endpointName: Cmax (µM)
Output spec: scalar in µM, unitless text.

Record Nc1cc(Cc2ccccc2)c2nn[nH]c2n1 . Reported Cmax: 13

----------
Measured IC50 (UniProt:P08684)
Sequence (P08684 whole entry): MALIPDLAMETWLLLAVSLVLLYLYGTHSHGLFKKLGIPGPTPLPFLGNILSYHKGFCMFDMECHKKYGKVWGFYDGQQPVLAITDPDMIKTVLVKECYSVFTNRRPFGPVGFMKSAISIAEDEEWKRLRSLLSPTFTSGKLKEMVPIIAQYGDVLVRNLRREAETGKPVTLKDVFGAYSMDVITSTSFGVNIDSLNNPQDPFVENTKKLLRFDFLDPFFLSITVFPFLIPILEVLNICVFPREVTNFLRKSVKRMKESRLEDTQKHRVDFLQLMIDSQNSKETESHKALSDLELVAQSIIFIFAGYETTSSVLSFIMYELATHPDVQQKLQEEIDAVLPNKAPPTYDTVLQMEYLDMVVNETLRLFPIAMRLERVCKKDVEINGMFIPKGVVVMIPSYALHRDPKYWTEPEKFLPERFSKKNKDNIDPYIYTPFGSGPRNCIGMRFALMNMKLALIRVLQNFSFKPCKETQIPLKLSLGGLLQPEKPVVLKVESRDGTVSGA
Output spec: scalar in µM, unitless text.

itemSmiles: Nc1cc([C@H](Cc2ccccc2)c2ccccc2)c2nn[nH]c2n1
assayValue: 3.4

Let us move to another entry and its IC50.
So the reported IC50 for Nc1cc([C@H](CCNCc2ccccc2)c2ccccc2)c2nn[nH]c2n1 , on UniProt:P08684, turned out to be 12

----------
Biological target: Cytochrome P450 1A2 (Homo sapiens, UniProt P05177)
Sequence (P05177 whole entry): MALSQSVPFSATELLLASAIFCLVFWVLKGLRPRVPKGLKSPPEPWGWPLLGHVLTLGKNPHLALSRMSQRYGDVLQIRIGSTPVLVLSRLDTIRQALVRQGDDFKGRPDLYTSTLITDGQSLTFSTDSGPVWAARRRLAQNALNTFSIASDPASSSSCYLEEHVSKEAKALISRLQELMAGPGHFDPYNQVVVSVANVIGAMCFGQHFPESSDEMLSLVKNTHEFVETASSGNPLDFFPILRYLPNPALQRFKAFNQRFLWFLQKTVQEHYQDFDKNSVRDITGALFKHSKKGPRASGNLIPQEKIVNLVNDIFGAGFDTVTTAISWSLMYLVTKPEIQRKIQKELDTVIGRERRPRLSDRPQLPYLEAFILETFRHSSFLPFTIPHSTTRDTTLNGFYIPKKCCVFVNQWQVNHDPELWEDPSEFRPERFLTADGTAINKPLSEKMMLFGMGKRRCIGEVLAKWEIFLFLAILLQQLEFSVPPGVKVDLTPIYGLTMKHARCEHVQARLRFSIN
pIC50: −log10 of the molar value.
endpointName: pIC50

itemSmiles: Nc1nc(OCc2ccccc2)c2[nH]nnc2n1
pIC50: < 5.00

Let us move to another entry and its pIC50.
Record Nc1cc(Cc2ccccc2)c2nn[nH]c2n1 . Reported pIC50: < 5.00
